- Tested on: wheat
- Protocol Summary: Test A preemergence
- Format: in vivo, Triticum aestivum
- Stated Conditions: 500 g ai/ha, 0 to 100 scale, 0 no effect, 100 complete control, approx. 10 days
Endpoint Label: Wheat plant response rating
Please reply with the number alone, leaving off any unit.

INPUT: Would you mind telling me what Wheat plant response rating value was observed for Cc1nn(-c2ccccc2Oc2ncc(Cl)cn2)cc1Cl [Compound 38] ?
OUTPUT: 0

INPUT: Now the compound Brc1cnc(Oc2ccccc2-n2cc(Br)c(Br)n2)nc1 [Compound 24]
OUTPUT: 0

INPUT: Also N#Cc1cccc(Oc2ncc(F)cn2)c1-n1cc(Br)cn1 [Compound 62] ?
OUTPUT: 80

INPUT: And the next one, N#Cc1cccc(Oc2ncc(I)cn2)c1-n1cc(Br)cn1 [Compound 60] ?
OUTPUT: 0

INPUT: Request: N#Cc1cccc(Oc2ncc(F)cn2)c1-n1cc(Cl)cn1 [Compound 73]
OUTPUT: 80

INPUT: One more compound: Clc1cnc(Oc2ccccc2-n2cnc(Br)n2)nc1 [Compound 46]
OUTPUT: 0

INPUT: Cool, now Cc1ccc(Oc2ncc(Cl)cn2)c(-n2cc(Br)cn2)c1 [Compound 40]
OUTPUT: 0

INPUT: Same for FC(F)(F)c1cnc(Oc2ccccc2-n2cc(Cl)cn2)nc1 [Compound 6]
OUTPUT: 30

INPUT: Do the same for FC(F)(F)c1cnc(Oc2ccccc2-n2cc(C(F)(F)F)cn2)nc1 [Compound 17] please
OUTPUT: 70

INPUT: Quick one: FC(F)(F)c1ccn(-c2ccccc2Oc2ncc(Br)cn2)n1 [Compound 1]
OUTPUT: 0

INPUT: Next record, please: Fc1cnc(Oc2ccccc2-n2cc(Cl)cn2)nc1 [Compound 11]
OUTPUT: 0

INPUT: Param item: Brc1cnc(Oc2ccccc2-n2cc(Br)cn2)nc1 [Compound 8]
OUTPUT: 0
